Tested on: SC27B
Protocol Description: qHTS profiling for inhibitors of Plasmodium falciparum proliferation (AID 504749); further: nearly all actives have a fitted effect of over 60% in size
Assay Conditions: P. falciparum in erythrocytes, SYBR Green DNA, 72 h; series mostly up to 28.7 µM
Inconclusive results are not listed. Calls of active or inactive are those of the source. The call rests on the fitted dose curve; in most records, active means well fitted inhibition curve with a large enough effect; inconclusive means small, poorly fitted or top-dose-only effect; inactive means flat fitted curve, though single readings scatter.
Measured Property: outcome

Known outcome results, listed for orientation:
CC(=O)SC[C@@H](Cc1ccccc1)C(=O)NCC(=O)OCc1ccccc1 : inactive
O=C(OOC(=O)c1ccccc1)c1ccccc1 : inactive
CC1CCc2cc(F)cc3c(=O)c(C(=O)O)cn1c23 (stereo not drawn) : inactive
CC[N+](C)(CC)CCOC(=O)C1c2ccccc2Oc2ccccc21 : inactive
O=C(O)c1ccc[n+]([O-])c1 : inactive
C[C@@H]1CCC[C@H](C)N1 : inactive
NC(=O)NS(=O)(=O)c1ccc(N)cc1 : inactive
Nc1ccncc1N : inactive

Req: What reported outcome corresponds to CCN(CC)CC1CCCCN1CC(=O)N1c2ccccc2C(=O)Nc2cccnc21 (stereo not drawn) on SC27B?
Resp: inactive

Req: What reported outcome corresponds to CCCC(O)C(CC)CO (stereo not drawn) on SC27B?
Resp: inactive

====

Protocol Description: NS1 protein of Zika virus - qHTS assay to identify small molecule inhibitors in human HEK 293 cells (AID 1347053); further: nearly all actives have a fitted effect of over 55% in size
Assay Conditions: HEK293 ZIKV MR766 infection, NS1 TR-FRET, 24 h; series mostly up to 46.1 µM
Text: National Center for Advancing Translational Sciences [NCATS] Johns Hopkins University School of Medicine The non-structural 1 (NS1) protein of zika virus is known to associate with the viral replication complex. This cell-based TR-FRET ZIKV NS-1 assay measures the increased NS-1 protein in human HEK 293 cells after a 24-hour Zika virus infection by a TR-FRET assay readout. […]
Records with an inconclusive call do not appear. Calls of active or inactive are those of the source. Calls follow the shape of the dose curve; as a rule, active = well fitted inhibition curve with a large enough effect; inconclusive = small, poorly fitted or top-dose-only effect; inactive = no such curve, though single readings can be large or run the other way.
Measured Property: activity change, negative = inhibition

Cc1cc(O)cc(C)c1Cl : inactive
CCCCCC(N)=O : inactive
CC1CCc2cc(F)cc3c(=O)c(C(=O)O)cn1c23 (configuration not stated) : inactive
C[n+]1ccccc1/C=N/O : inactive
CN[C@@H]1[C@H](O)[C@H](NC)[C@H]2O[C@@]3(O)C(=O)C[C@@H](C)O[C@H]3O[C@@H]2[C@H]1O : inactive
COc1ccc(O)cc1 : inactive
O=C(O)CCCc1ccccc1 : inactive
O=C(O)Cc1cn(-c2ccccc2)nc1-c1ccc(Cl)cc1 : inactive

Req: Quick check: activity change, negative = inhibition of O=C(O)Cn1c(C(=O)Nc2nc(-c3ccccc3Cl)cs2)cc2ccccc21 ?
Resp: inactive

Req: Quick check: activity change, negative = inhibition of CCOC(=O)OC(C)OC(=O)[C@@H]1N2C(=O)[C@@H](NC(=O)[C@H](N)c3ccccc3)[C@H]2SC1(C)C (some centres not stated) ?
Resp: inactive

Req: Quick check: activity change, negative = inhibition of NC(=O)CC[C@@H](N)C(=O)O ?
Resp: inactive

Req: Quick check: activity change, negative = inhibition of CN1CCN(C(=O)C2CCCCC2)CC1 ?
Resp: inactive

Req: Quick check: activity change, negative = inhibition of CC(C)NC[C@@H](O)COc1ccc(CC(N)=O)cc1 ?
Resp: inactive

Req: Quick check: activity change, negative = inhibition of FC(F)(F)C(Cl)Br (configuration not stated) ?
Resp: inactive

Req: Quick check: activity change, negative = inhibition of C[N+](C)(C)CC(O)CC(=O)[O-] (configuration not stated) ?
Resp: inactive

Req: Quick check: activity change, negative = inhibition of CCOC(=O)[C@H](CCc1ccccc1)N[C@@H](C)C(=O)N1CCC[C@H]1C(=O)O ?
Resp: inactive
